- ASSAYED TARGET: F508delCFTR cell surface expression in CFBE41o-F508delCFTR-HRP cells (Homo sapiens, UniProt P13569, DEL508-508)
- Construct: fused on or other part: Horseradish peroxidase (HRP) reporter inserted in the fourth exofacial (extracellular) loop of CFTR; expression is doxycycline-inducible
- Sequence (P13569 with tags, fused parts or gaps DEL508-508 limits assumed): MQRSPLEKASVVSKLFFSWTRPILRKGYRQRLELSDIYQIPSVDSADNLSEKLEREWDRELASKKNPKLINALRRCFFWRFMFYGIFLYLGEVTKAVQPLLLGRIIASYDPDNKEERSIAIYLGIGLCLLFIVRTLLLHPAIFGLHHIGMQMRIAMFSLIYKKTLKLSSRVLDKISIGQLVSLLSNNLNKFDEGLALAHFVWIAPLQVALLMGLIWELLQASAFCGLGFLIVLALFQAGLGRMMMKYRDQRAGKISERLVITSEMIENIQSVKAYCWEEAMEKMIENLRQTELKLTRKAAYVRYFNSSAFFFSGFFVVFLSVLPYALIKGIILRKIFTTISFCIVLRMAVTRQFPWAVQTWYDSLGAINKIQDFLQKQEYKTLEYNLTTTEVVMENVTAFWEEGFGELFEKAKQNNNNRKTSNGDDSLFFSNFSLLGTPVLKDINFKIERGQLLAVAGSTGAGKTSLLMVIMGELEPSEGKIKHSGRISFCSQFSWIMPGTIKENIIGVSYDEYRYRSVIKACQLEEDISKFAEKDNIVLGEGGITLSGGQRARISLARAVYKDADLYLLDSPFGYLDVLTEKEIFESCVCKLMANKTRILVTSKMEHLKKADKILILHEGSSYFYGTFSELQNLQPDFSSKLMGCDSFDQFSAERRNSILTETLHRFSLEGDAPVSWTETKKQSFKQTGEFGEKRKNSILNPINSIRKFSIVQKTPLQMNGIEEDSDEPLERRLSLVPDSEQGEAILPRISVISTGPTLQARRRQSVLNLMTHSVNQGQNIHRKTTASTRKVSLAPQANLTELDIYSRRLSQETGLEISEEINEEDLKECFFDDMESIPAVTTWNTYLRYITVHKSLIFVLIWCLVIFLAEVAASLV
- Sequence (P13569 919-1480 limits assumed, stated change not applied): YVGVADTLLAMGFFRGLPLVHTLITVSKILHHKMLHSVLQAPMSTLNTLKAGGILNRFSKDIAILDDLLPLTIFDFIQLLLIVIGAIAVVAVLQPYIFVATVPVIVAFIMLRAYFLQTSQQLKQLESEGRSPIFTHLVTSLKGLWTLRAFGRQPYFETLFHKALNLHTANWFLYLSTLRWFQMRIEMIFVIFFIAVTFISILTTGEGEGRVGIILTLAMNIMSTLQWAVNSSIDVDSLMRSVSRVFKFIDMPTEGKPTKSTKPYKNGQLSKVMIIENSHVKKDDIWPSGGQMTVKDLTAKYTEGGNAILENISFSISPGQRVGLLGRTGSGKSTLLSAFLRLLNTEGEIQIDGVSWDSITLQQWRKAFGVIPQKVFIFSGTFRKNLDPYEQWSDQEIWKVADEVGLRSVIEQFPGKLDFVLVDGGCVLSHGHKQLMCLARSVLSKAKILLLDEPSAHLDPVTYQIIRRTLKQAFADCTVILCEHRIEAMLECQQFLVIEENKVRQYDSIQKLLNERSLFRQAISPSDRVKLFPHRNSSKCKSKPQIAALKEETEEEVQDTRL
- ASSAY DETAILS: Cell Surface Expression-Horse Radish Peroxidase (CSE-HRP) Assay
- APPLIED CONDITIONS: CFBE41o-F508delCFTR-HRP cells, 18-24 hours at 33° C., 8-point curve, highest concentration 20 μM
A collection of molecules and their measured log10 EC50
QUANTITY: log10 EC50 (log10 of the value in nM)

| MOLECULE | QUANTITY | REPORTED |
| --- | --- | --- |
| COc1ccc2c(c1)O[C@H](C1CCC(C(=O)O)CC1)C[C@@H]2NC(=O)[C@]1(C)COc2cc3c(cc21)OC(F)(F)O3 (stereo partly shown) [Example 293] | log10 EC50 | 3.21 |
| C[C@]1(C(=O)Nc2cccc(N3CC[C@@H](S(C)(=O)=O)C3)n2)COc2cc3c(cc21)OC(F)(F)O3 [Example 111] | log10 EC50 | 2.73 |
| CC1(C(=O)Nc2cccc(-c3ccccc3)n2)COc2cc3c(cc21)OC(F)(F)O3 (stereo not shown) [Example 55] | log10 EC50 | 3.82 |
| COc1ccc2c(c1)O[C@@H](c1ccc(C(=O)NCCCC(N)=O)cn1)C[C@H]2NC(=O)[C@@]1(C)COc2cc3c(cc21)OC(F)(F)O3 [Example 228] | log10 EC50 | 1.95 |
| COc1ccc2c(c1)O[C@@H](c1ccc(C(=O)N(CCO)CCO)cn1)C[C@H]2NC(=O)[C@@]1(C)COc2cc3c(cc21)OC(F)(F)O3 [Example 236] | log10 EC50 | 1.85 |
| C=Cc1cnc([C@H]2C[C@@H](NC(=O)[C@@]3(C)COc4cc5c(cc43)OC(F)(F)O5)c3ccc(OC)cc3O2)cn1 [Example 190] | log10 EC50 | 1.95 |
| COc1cc2c(cc1Br)[C@H](NC(=O)[C@@]1(C)COc3cc4c(cc31)OC(F)(F)O4)C[C@H]([C@H]1CC[C@H](C(=O)O)CC1)O2 [Example 290] | log10 EC50 | 2.72 |
| CC1(C(=O)Nc2cc(-c3ccccc3)nn(C[C@@H](O)CO)c2=O)COc2cc3c(cc21)OC(F)(F)O3 (stereo partly shown) [Example 25] | log10 EC50 | 3.06 |
| COc1ccc2c(c1)O[C@@H](c1ccc(C(=O)N(C)CC(O)c3ccccc3)cn1)C[C@H]2NC(=O)[C@@]1(C)COc2cc3c(cc21)OC(F)(F)O3 (stereo partly shown) [Example 211] | log10 EC50 | 1.48 |
| COc1ccc2c(c1)O[C@@H](c1ccc(N3C[C@@H](O)[C@H](O)C3)nn1)C[C@H]2NC(=O)[C@@]1(C)COc2cc3c(cc21)OC(F)(F)O3 [Example 251] | log10 EC50 | 1.48 |
| CCCN(CCO)C(=O)c1ccc([C@H]2C[C@@H](NC(=O)[C@@]3(C)COc4cc5c(cc43)OC(F)(F)O5)c3ccc(OC)cc3O2)nc1 [Example 209] | log10 EC50 | 1.48 |
| C[C@]1(C(=O)Nc2cccc(N3CCOC(CO)C3)n2)COc2cc3c(cc21)OC(F)(F)O3 (stereo partly shown) [Example 87] | log10 EC50 | 3.27 |
| COc1ccc2c(c1)O[C@@H](COC[C@H](O)CO)C[C@H]2NC(=O)[C@@]1(C)COc2cc3c(cc21)OC(F)(F)O3 [Example 274] | log10 EC50 | 2.93 |

* * *

A collection of molecules and their measured EC50
- ASSAYED TARGET: F508delCFTR cell surface expression in CFBE41o-F508delCFTR-HRP cells (Homo sapiens, UniProt P13569, DEL508-508)
- Construct: fused on or other part: Horseradish peroxidase (HRP) reporter inserted in the fourth exofacial (extracellular) loop of CFTR; expression is doxycycline-inducible
- ASSAY DETAILS: Cell Surface Expression-Horse Radish Peroxidase (CSE-HRP) Assay
- APPLIED CONDITIONS: CFBE41o-F508delCFTR-HRP cells, 18-24 hours at 33° C., 8-point curve, highest concentration 20 μM
QUANTITY: EC50 (µM)

| MOLECULE | QUANTITY | REPORTED |
| --- | --- | --- |
| COc1ccc2c(c1)O[C@H](c1ccc(=O)[nH]n1)C[C@H]2NC(=O)[C@@]1(C)COc2cc3c(cc21)OC(F)(F)O3 | EC50 | 0.07 |
| COC(=O)c1ccc([C@H]2C[C@@H](NC(=O)[C@@]3(C)COc4cc5c(cc43)OC(F)(F)O5)c3ccc(OC)cc3O2)cc1 | EC50 | 0.08 |
| CC(C)OC(=O)[C@H]1CC[C@H]([C@H]2C[C@@H](NC(=O)[C@@]3(C)COc4cc5c(cc43)OC(F)(F)O5)c3ccc(OC(F)(F)F)cc3O2)CC1 | EC50 | 0.06 |
| COc1ccc2c(c1)O[C@@H](c1ccc(C(=O)N3CCC(F)(F)CC3)cc1)C[C@H]2NC(=O)[C@@]1(C)COc2cc3c(cc21)OC(F)(F)O3 | EC50 | 0.07 |
| C[C@]1(C(=O)Nc2cc3cc(C4(COCc5ccccc5)CC4)n(C[C@@H](O)COCc4ccccc4)c3cc2F)COc2cc3c(cc21)OC(F)(F)O3 | EC50 | 0.21 |
| CC(C)(C)c1cc2cc(NC(=O)[C@@]3(C)COc4cc5c(cc43)OC(F)(F)O5)c(F)cc2n1C[C@@H](O)CO | EC50 | 0.3 |

* * *

A collection of compounds and their measured Maximum % activity (%)
- ASSAYED TARGET: F508delCFTR in primary hBE cells with F508del/F508del CFTR mutation (Homo sapiens, UniProt P13569, DEL508-508)
- Construct: cells isolated from CF patients with the homozygous mutation; endogenous in cells; host or cells: primary human bronchial epithelial (hBE) cells from F508del/F508del CF patients
- Sequence (P13569 with tags, fused parts or gaps DEL508-508): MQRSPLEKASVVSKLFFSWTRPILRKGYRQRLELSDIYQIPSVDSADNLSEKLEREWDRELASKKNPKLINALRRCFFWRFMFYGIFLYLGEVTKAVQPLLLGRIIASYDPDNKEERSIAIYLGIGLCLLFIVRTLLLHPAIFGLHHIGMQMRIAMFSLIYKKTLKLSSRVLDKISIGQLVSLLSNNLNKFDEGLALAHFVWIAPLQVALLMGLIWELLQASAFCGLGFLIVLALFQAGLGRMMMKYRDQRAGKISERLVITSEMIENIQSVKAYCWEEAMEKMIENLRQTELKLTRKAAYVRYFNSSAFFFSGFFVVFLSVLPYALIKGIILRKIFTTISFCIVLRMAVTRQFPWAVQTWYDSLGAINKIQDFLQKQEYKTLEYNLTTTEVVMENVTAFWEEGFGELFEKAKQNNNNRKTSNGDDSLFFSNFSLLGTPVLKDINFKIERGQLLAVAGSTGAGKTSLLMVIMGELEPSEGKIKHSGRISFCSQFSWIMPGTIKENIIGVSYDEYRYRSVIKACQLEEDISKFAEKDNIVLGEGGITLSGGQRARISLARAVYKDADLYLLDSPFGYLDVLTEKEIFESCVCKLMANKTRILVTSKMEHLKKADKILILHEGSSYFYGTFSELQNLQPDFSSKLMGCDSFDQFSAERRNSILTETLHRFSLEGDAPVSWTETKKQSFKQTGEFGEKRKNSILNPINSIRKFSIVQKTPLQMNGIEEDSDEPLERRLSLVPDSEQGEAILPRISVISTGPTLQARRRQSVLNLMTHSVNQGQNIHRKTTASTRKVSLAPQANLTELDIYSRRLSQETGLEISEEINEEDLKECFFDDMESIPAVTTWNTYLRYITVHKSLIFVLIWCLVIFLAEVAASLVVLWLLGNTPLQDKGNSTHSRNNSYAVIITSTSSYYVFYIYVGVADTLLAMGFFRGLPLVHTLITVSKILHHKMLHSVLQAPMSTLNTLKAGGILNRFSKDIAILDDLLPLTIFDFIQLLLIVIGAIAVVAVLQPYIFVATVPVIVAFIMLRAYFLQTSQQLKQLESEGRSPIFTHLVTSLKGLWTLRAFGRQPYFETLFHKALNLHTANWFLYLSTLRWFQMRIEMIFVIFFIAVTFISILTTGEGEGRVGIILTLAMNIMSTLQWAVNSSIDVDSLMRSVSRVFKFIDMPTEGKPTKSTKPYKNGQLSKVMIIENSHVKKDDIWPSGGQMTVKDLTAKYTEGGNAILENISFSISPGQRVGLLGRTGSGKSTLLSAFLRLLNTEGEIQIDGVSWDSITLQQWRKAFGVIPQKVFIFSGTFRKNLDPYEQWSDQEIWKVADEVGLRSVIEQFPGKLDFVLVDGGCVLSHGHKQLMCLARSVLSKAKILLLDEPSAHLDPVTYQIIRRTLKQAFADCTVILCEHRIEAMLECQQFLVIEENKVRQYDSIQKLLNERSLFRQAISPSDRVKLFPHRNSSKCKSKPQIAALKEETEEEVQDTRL
- ASSAY DETAILS: Transepithelial Clamp Circuit on Human Bronchial Epithelial Cells Conductance Assay (hBE-TECC)
- Assay type: cell-based
- APPLIED CONDITIONS: relative to positive control (3 μM) coupled with control potentiator
QUANTITY: Maximum % activity (%)

| COMPOUND | REPORTED |
| --- | --- |
| C[C@]1(C(=O)N[C@@H]2C[C@H]([C@H]3CC[C@H](C(=O)NCCO)CC3)Oc3cc(OC(F)(F)F)ccc32)COc2cc3c(cc21)OC(F)(F)O3 | 104% |
| COc1ccc2c(c1)O[C@@H](c1ccc(C(=O)O)cc1)C[C@H]2NC(=O)[C@]1(C)CCc2c1ccc1c2OCO1 | 105% |
| C[C@]1(C(=O)Nc2cc3cc(C4(CO)COC4)n(C[C@@H](O)CO)c3cc2F)COc2cc3c(cc21)OC(F)(F)O3 | 62% |
| CC1(C(=O)N[C@@H]2C[C@H](c3cccc(C(=O)O)c3)Oc3ccccc32)COc2cc3c(cc21)OC(F)(F)O3 (stereo partly shown) | 94% |

* * *

- ASSAYED TARGET: F508delCFTR cell surface expression in CFBE41o-F508delCFTR-HRP cells (Homo sapiens, UniProt P13569, DEL508-508)
- Construct: fused on or other part: Horseradish peroxidase (HRP) reporter inserted in the fourth exofacial (extracellular) loop of CFTR; expression is doxycycline-inducible
- ASSAY DETAILS: Cell Surface Expression-Horse Radish Peroxidase (CSE-HRP) Assay
- APPLIED CONDITIONS: CFBE41o-F508delCFTR-HRP cells, 18-24 hours at 33° C., 8-point curve, highest concentration 20 μM
pEC50: −log10 of the molar value.
Cut-off 6 on pEC50, inclusive. At or above means yes; below means no.

| MOLECULE | CLASS ASSIGNMENT |
| --- | --- |
| COc1ccc2c(c1)O[C@@H](c1cnc([C@H](O)CO)cn1)C[C@H]2NC(=O)[C@@]1(C)COc2cc3c(cc21)OC(F)(F)O3 (single isomer, unassigned) | yes |
| C[C@]1(C(=O)N[C@@H]2C[C@H](C3CCN(CC(=O)O)CC3)Oc3cc(OC(F)(F)F)ccc32)COc2cc3c(cc21)OC(F)(F)O3 | no |
| COc1ccc2c(c1)O[C@@H](c1ccc(C(=O)NCC3CNC(=O)C3)cn1)C[C@H]2NC(=O)[C@@]1(C)COc2cc3c(cc21)OC(F)(F)O3 (stereo partly drawn) | yes |
| COc1ccc2c(c1)O[C@@H](c1cccc(C(=O)O)c1)C[C@H]2NC(=O)C1(C)COc2cc3c(cc21)OC(F)(F)O3 (stereo partly drawn) | yes |
| C[C@]1(C(=O)Nc2cc(Br)cn(-c3ccc(C(=O)O)cc3)c2=O)COc2cc3c(cc21)OC(F)(F)O3 | yes |
| C[C@]1(C(=O)Nc2cccc(N3CCC(CO)(CCl)C3)n2)COc2cc3c(cc21)OC(F)(F)O3 (stereo partly drawn) | no |

From: patent US9840513B2
